# protocol text: protein stability index of a GFP-peptide fusion (yeast GPS) (PSI 1-4); higher = more stable; sorted into four equal gates, so the index is relative within each strain
# run conditions: pdr5∆
value kind: protein stability index
One number for each entry.

Some sequences with known protein stability index results, for comparison:
EKTMVKKNLGRLTRLWI [PRP8]; 3.07
NESWKSSFEKFNDSQAI [SRP72]; 2.96
FFTIDHFIQKLHTARKI [SIR2]; 1.71

Batch: protein stability index for all items listed.
1. QFTKVIDEPIKSIMDGI [FAS1]
2. EKTFLHLPCTIEAEEAE [RPN8]
3. GTSLTIQHIAAAMVPFI [CDC53]
4. QLKFEGFALNSDIVFIH [BRR2]

Response line:
2.27
2.05
2.91
1.71

Batch lookup, protein stability index per entry.
1. NESKIKELNEKIQKLEE [RPN7]
2. PREDKENNRLLFECRTC [RPB9]

Response line:
2.48
3.17

Need protein stability index for each of these sequences.
1. DNEEWMNDVINTEEVNR [LIN1]
2. KSLDSIPMSKTIKDLVG [FAS2]
3. TVRLVNLFSSTGFKGLL [SRB2]

Response line:
1. 3.46
2. 2.97
3. 2.73

Give one value of protein stability index per listed sequence.
1. QIKEIKEVIELPVKHPE [RPT6]
2. LEQREQNENLPSDKSDS [SSN2]
3. EILYYQIKTLPEQYSDI [AAR2]
4. DLLDMIQFGAKNMFEKK [ISW2]
5. ALYRVNDLRDMILNYNP [UBP6]
6. TEEKCKNFIESESVGAF [YJL039C/NUP192]

Response line:
1: 3.13; 2: 3.09; 3: 3.14; 4: 3.29; 5: 2.73; 6: 3.23

Provide reported protein stability index for each item, in the same order as listed.
1. QSEDLSHAVEFFMSERS [YML103C/NUP188]
2. PSYYGVRDTSPHGISVF [BRR2]

Response line:
[3.37, 1.41]

Would you mind giving protein stability index for every sequence in the list below?
1. NIVQVFKKAAPSPISHV [RPB2]
2. NFSNVTDLTNNSTDGAK [YIL149C/MLP2]
3. PGEYITTIKAIFDGNYG [YMR129W/POM152]
4. YDPSIGIFGMDFYVVMN [RPL11A]
5. QASDPSKKKKNIKKKDT [RPC53]

Response line:
[2.33, 3.15, 2.72, 2.24, 3.5]

Can you give me protein stability index for all of these, one by one?
1. KVFIRESLSLKNIHISK [YML103C/NUP188]
2. EFQPSGNVTELYGTAIG [PRE5]
3. KPDVTYADVGGLDMQKQ [RPT3]
4. KVISEILTREVQNSTLA [RPS1B]

Response line:
[2.21, 2.8, 3.69, 2.86]

Count: 7. Required value per item: protein stability index.
1. QMPLNSNGGNNMLPQRQ [SNF2]
2. KGVTEKDAVDYSKIPNI [RRP6]
3. TNTFGSNSAGTSLFGSS [YJL041W/NSP1]
4. SLSFGSGSAGANPAGAS [YJL041W/NSP1]
5. IELLSYLVEAPWNDDYP [YML103C/NUP188]
6. KLKNENTDLKDIIQGNP [PCI8]
7. FEIDGDVIHFEDSSILQ [PCI8]

Response line:
1. 2.79
2. 3.18
3. 2.84
4. 2.89
5. 2.04
6. 3.21
7. 3.46
